This section presents IC50 values reported for SYK kinase (Homo sapiens) in the literature.

Q: Please look up its IC50: COCCOCCOCCOc1cc(Nc2cc(Oc3ccc(NC(=O)Nc4cc(C(C)(C)C)cc(C(N)=O)c4OC)c4ccccc34)ccn2)cc(OC)c1
Result: 85 nM

Q: Given the molecule COCCCNc1nccn2nc(Nc3ccccc3)nc12 , what is its reported IC50?
Result: 3000 to 50000 nM

Q: Returns the measured IC50 for the input molecule. Input: COc1cc(-c2cc3nccc(Nc4ccc5c(n4)NC(=O)C(C)(C)O5)c3o2)cc(OC)c1OC
Result: 300 to 3000 nM

Q: // IC50 lookup, key: COc1ccc(C(=O)NCCN)cc1-c1cc2nccc(-c3c(OC)cccc3OC)c2o1
Result: 300 to 3000 nM

---

// cross-study collection: IC50 for SYK kinase (Homo sapiens)
Only the number, expressed in nM, is required.

Q: Fill in the recorded IC50 for this molecule, with SYK kinase (Homo sapiens) as test system: COCCOCCOCCOc1cc(Nc2nccc(Oc3ccc(NC(=O)Nc4cc(C(C)(C)C)cc(OCP(C)(C)=O)c4OC)c4ccccc34)n2)cc(OC)c1
Result: 58

Q: Record lookup: for SYK kinase (Homo sapiens), what IC50 belongs to Cc1ccc(-n2nc(C(C)(C)C)cc2NC(=O)Nc2ccc(Oc3ccnc(Nc4cnc5[nH]ncc5c4)n3)c3ccccc23)cc1 ?
Result: 162

Q: Provide value of IC50 for this record tested with SYK kinase (Homo sapiens): CNS(=O)(=O)N1CCO[C@H](COc2nc(-c3ccc(N4CCOCC4)cc3)cc3nccnc23)C1
Result: 65

---

Below: compounds with pIC50 recorded for SYK kinase (Homo sapiens) in separate published works.
pIC50: −log10 of the molar value.

Q: GET /values?readout=pIC50&system=SYK kinase (Homo sapiens)&item= CS(=O)(=O)N1CCO[C@H](COc2nc(-c3ccc(N4CCNCC4)cc3)cc3nccnc23)C1
Result: 7.60

Q: Recorded pIC50 for COc1ccc(Nc2nc(-c3c(F)cccc3F)nc3cn[nH]c23)cc1NC(C)=O with SYK kinase (Homo sapiens), please?
Result: 6.00 to 7.00

Q: Form field - read-out: pIC50; system: SYK kinase (Homo sapiens); submitted item: Cc1nn(C)c(C)c1-c1nccn2nc(Nc3ccc4c(c3)NC(=O)C4(C)C)nc12
Result: 5.52 to 6.52

Q: For the record CC(C)=Cn1cc(Nc2nc3ccc(S(C)(=O)=O)cc3c3cn[nH]c23)cn1 , what value of pIC50 is listed for SYK kinase (Homo sapiens)?
Result: 7.00 to 8.00

Q: Request: pIC50, test system SYK kinase (Homo sapiens), entry NCCNc1nccn2nc(Nc3cccc(C(F)(F)F)c3)nc12
Result: 4.30 to 5.52

Q: pIC50 of CS(=O)(=O)c1ccc2nc(Nc3ccc(O)cc3)c3n[nH]cc3c2c1 on SYK kinase (Homo sapiens)?
Result: > 8.00

Q: Lab note: need pIC50 with SYK kinase (Homo sapiens) for entry CC1(C)C(=O)Nc2cc(Nc3nc4c(N5Cc6cn[nH]c6C5)nccn4n3)ccc21 , please look it up.
Result: > 7.00

Q: GET /values?readout=pIC50&system=SYK kinase (Homo sapiens)&item= CN(C)c1ccc(-c2cc3nccnc3c(OC[C@@H]3CN(C(=O)C4(C#N)CC4)CCO3)n2)cc1
Result: 6.84

Q: Identify the measured pIC50 of Cn1cc(-c2ccnc3cc(-c4ccc(C(C)(C)O)cc4)oc23)cn1 for SYK kinase (Homo sapiens).
Result: > 6.52

Q: // lookup pIC50 | system=SYK kinase (Homo sapiens) | key= COc1c(NC(=O)Nc2ccc(Oc3ccnc(Nc4cnn(C)n4)n3)c3ccccc23)cc(C(C)(C)C)cc1P(C)(C)=O
Result: < 5.79

Q: GET /values?readout=pIC50&system=SYK kinase (Homo sapiens)&item= COc1cccc2nc(Nc3cnn(CC(F)(F)F)c3)c3[nH]ncc3c12
Result: 6.00 to 7.00

Q: Value wanted: pIC50 (SYK kinase (Homo sapiens)) of entry COc1cc(-c2cc3nccc(-c4nnc(CCN)o4)c3o2)cc(OC)c1OC
Result: 4.30 to 5.52

Q: Provide the documented pIC50 with SYK kinase (Homo sapiens) as the system for COc1ccc(Nc2nc(-c3cnn(C(C)C(C)C)c3)nc3cn[nH]c23)cc1OC (stereo not shown)
Result: 6.00 to 7.00

Q: Kindly state the measured pIC50 obtained for CC12Oc3ccc(cc3NC1=O)Nc1nc(ncc1F)Nc1ccc(cc1)OCCCC(=O)NCCCNC2=O (stereo not shown) with SYK kinase (Homo sapiens).
Result: 5.52 to 6.52

Q: Test system SYK kinase (Homo sapiens); read-out pIC50; what value for COCCOCCOCCOc1cc(Nc2nccc(Oc3ccc(NC(=O)Nc4cc(C(C)(C)C)cc(NS(=O)(=O)N5CCOCC5)c4OC)c4ccccc34)n2)cc(OC)c1 ?
Result: 6.10

Q: # get_value(readout= pIC50, system= SYK kinase (Homo sapiens)) for Cc1ccc(-n2nc(C(C)(C)C)cc2NC(=O)Nc2ccc(OCc3ccnc(Nc4cncc(C5CCC5)n4)c3)c3ccccc23)cc1
Result: 5.38
